Data provenance: patent US20220153839A1

Target: T1, StrepII-tagged human ROR1 extracellular domain (human, UniProt Q01973 30-406)
T1 construct: extracellular domain; also called ROR1-strep; strep-tagged human ROR1
T1 sequence (Q01973 other isoform, or with tags, fused parts or gaps): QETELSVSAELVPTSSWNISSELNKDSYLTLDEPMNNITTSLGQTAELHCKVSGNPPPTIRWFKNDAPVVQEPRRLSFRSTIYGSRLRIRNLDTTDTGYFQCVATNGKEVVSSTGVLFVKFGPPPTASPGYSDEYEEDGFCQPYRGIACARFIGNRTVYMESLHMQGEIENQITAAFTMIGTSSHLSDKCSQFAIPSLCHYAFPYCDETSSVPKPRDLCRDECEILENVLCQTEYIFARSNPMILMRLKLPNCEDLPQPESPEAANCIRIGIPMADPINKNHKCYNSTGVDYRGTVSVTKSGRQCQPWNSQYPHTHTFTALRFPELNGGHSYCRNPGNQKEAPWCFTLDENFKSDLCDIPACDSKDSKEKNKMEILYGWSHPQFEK
Assay: SPR (Biacore T200); mAb captured by goat anti-human Fcγ IgG on CM5; ROR1-strep as analyte (Example 8)
Method: Affinity screening was then performed to select the best binders. Affinities were determined using a Biacore T200 instrument (GE Healthcare, Buckinghamshire, UK) and data was evaluated using Biacore Evaluation T200 V2.0 software. To capture mAbs, goat α-human Fc-gamma-specific IgG (Jackson ImmunoResearch, #109-005-098) was covalently immobilized on a CM5 chip (GE Healthcare, #BR-1005-30).
pKd: −log10 of the molar value.
MEASUREMENT_LABEL: pKd

>>> numeric_readout("HuXBR1-402(19) (mAb295) (antibody, human IgG1, V domains shown, Humanized IgG (human IgG1 constant regions, lambda)) VH: QVQLQESGPGLVKPSETLSLTCTVSGFDISSYYMSWVRQPPGNGLEWIGAIGISGNAYYASWAKSRVTISRDTSKNQFSLKLSSVTAADTAVYYCARDHPTYGMDLWGPGTLVTVSS VL: SYELTQPPSVSVAPGKTARITCEGNNIGSKAVHWYQQKPGQAPVLVIYDDDERPSGIPERFSGSNSGNTATLTISRVEAGDEADYYCQVWDSSAYVFGGGTKLTVLG")
8.52
>>> numeric_readout("HuXBR1-402(8) (mAb289) (antibody, human IgG1, V domains shown, Humanized IgG (human IgG1 constant regions, lambda)) VH: QVQLQESGPGLVKPSETLSLTCTVSGFDISSYYMSWVRQPPGKGLEWIGAIGISGNAYYASWAKSRVTISRDTSKNQFSLKLSSVTAADTAVYYCARDHPTYGMDLWGPGTLVTVSS VL: SYELTQPPSVSVSPGQTAIITCEGNNIGSKAVHWYQQKPGLSPVLVIYDDDERPSGIPERFSGSNSGNTATLTVSGTQDMDEADYYCQVWDSSAYVFGGGTKLTVLG")
8.68
>>> numeric_readout("HuXBR1-402(15) (mAb290) (antibody, human IgG1, V domains shown, Humanized IgG (human IgG1 constant regions, lambda)) VH: QVQLQESGPGLVKPSETLSLTCTVSGFDISSYYMSWVRQPPGKGLEWIGAIGISGNAYYASWAKSRVTISRDTSKNQFSLKLSSVTAADTAVYYCARDHPTYGMDLWGPGTLVTVSS VL: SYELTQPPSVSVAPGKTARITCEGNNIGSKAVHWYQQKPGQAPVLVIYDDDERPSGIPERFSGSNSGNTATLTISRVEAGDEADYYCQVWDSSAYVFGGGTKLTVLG")
8.46
